# target_system: MCR3 (human, UniProt P41968 1-323)
# Sequence (P41968 whole entry): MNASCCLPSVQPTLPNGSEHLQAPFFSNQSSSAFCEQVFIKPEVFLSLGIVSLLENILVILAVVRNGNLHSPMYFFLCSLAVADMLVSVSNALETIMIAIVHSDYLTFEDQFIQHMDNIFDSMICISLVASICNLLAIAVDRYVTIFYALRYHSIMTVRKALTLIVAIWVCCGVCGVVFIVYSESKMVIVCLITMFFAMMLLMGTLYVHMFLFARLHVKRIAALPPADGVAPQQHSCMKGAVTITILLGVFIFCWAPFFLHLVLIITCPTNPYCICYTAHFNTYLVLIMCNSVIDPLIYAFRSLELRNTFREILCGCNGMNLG
# protocol_details: cell-based or functional assay
Square brackets hold non-standard residues; d marks the D form. Ends that are not written are not given here. Nle = CCCC[C@H](N)C(=O)O
Parameter MCR3 EC50 (nM); cAMP production, LANCE cAMP assay, CHO-MCR3 cells, cell pool C: see the listing below.
The reply should contain only the number, in nM.

Look over these answered cases.
SYSMEHFRWGKPVGKKRRPVKVYPGGGGSGGGGSSYS[Nle]EH[dF]RWGKPV (ends and bridges not checked) [ACTH1-24-linker-linker-NDP-α-MSH]; 0.8
SYSMEHFRWGKPVGKKRRPVKVYPGGGSSYS[Nle]EH[dF]RWGKPV (ends and bridges not checked) [ACTH1-24-4aa-NDP-α-MSH]; 0.92
SYSMEHFRWGKPVGAARRPVKVYPGGGGSGGGGSSYS[Nle]EH[dF]RWGKPV (ends and bridges not checked) [ACTH1-24-point-1-2-10aa-NDP-α-MSH]; 0.58

I have this binder here, SYSMEHFRWGKPVGKKRRPVKVYPSYS[Nle]EH[dF]RWGKPV (ends and bridges not checked) [ACTH1-24-NDP-α-MSH] , and I need its recorded MCR3 EC50 (nM); cAMP production, LANCE cAMP assay, CHO-MCR3 cells, cell pool C.
1.5

I have this binder here, SYSMEHFRWGKPVGKKAAAVKVYPGGGSSYS[Nle]EH[dF]RWGKPV (ends and bridges not checked) [ACTH1-24-point-3-5-4aa-NDP-α-MSH] , and I need its recorded MCR3 EC50 (nM); cAMP production, LANCE cAMP assay, CHO-MCR3 cells, cell pool C.
0.61

I have this binder here, SYSMEHFRWGKPVGKKAAAVKVYP [ACTH1-24-point-3-5] , and I need its recorded MCR3 EC50 (nM); cAMP production, LANCE cAMP assay, CHO-MCR3 cells, cell pool C.
14

FYI, the data here is from patent US20190054150A1.
